- Test system: UO-31 renal
- Assay: NCI tumour cell line growth inhibition, 48 h; in the data active = GI50 below about 0.43 µM; inactive = the rest
Possible outcomes: active, inactive

INSERT INTO measurements (compound, measurement_target, classification) VALUES
  ('COc1ccc2c(c1)[nH]c(=O)c1c3ccccc3cn21', 'UO-31 renal', 'active'),
  ('O=C(Nc1ccc(-n2cc(-c3ccncc3)c(-c3ccc(O)c(Cl)c3)n2)cc1)Nc1ccc(Cl)c(C(F)(F)F)c1', 'UO-31 renal', 'inactive'),
  ('CN1CCC2(CC1)NC(=O)c1c(c3ccc(Cl)c(Cl)c3n1C)C2C#N (stereo unspecified)', 'UO-31 renal', 'inactive'),
  ('Cn1nc(C(F)(F)F)cc1-c1c[nH]c(OCc2ccc(Cl)cc2)c(-c2ccc(Cl)c(C(F)(F)F)c2)c1=O', 'UO-31 renal', 'inactive'),
  ('Cc1cc(O)cc(C)c1/C=C/c1cncc(C(N)=O)c1', 'UO-31 renal', 'inactive'),
  ('CCNC(=O)Nc1ccc(Oc2ccnc3ccc4c(ccn4C)c23)cc1', 'UO-31 renal', 'inactive'),
  ('CCOC(=O)c1cc(C(=O)c2cc(OC)c(OC)c(OC)c2)n2c1ccc1ccccc12', 'UO-31 renal', 'inactive'),
  ('C=C1C(=O)O[C@H]2C[C@@H]1CC/C(C)=C/CC/C(C)=C/CC[C@@]2(C)O', 'UO-31 renal', 'inactive'),
  ('NC1CCCCC1N.O=[Se]([O-])[O-].[Pt+4] (stereo unspecified)', 'UO-31 renal', 'inactive'),
  ('O=[N+]([O-])c1ccc(C2CC(c3ccccc3)=Nc3ccccc3S2)cc1 (stereo unspecified)', 'UO-31 renal', 'inactive'),
  ('N=C(N)SCc1c2ccccc2c(CSC(=N)N)c2ccccc12', 'UO-31 renal', 'inactive'),
  ('COc1ccc(Nc2cc(C)nc(NCc3ccccc3)n2)cc1', 'UO-31 renal', 'inactive'),
  ('C=C1C(=O)O[C@H]2[C@H]1CC/C(C=Nc1c(N)cc(C(F)(F)F)cc1C(F)(F)F)=C\CC[C@@]1(C)O[C@@H]21', 'UO-31 renal', 'inactive'),
  ('COc1ccc2c(c1)oc(=O)c1cc(OC)ccc12', 'UO-31 renal', 'inactive'),
  ('N#C[Se]CCN1C(=O)C2C(C1=O)[C@H]1C=C[C@@H]2S1 (stereo partly specified)', 'UO-31 renal', 'inactive'),
  ('N#Cc1c(N2CCOCC2)nc(=S)[nH]c1-c1ccccc1', 'UO-31 renal', 'inactive');
